Please provide measured TGI for the entries that follow.
System: SNB-19 CNS
Experiment: NCI tumour cell line growth inhibition, 48 h

State its TGI: `CC1=c2c(oc3cc(O)c(Nc4c(C)cc(O)cc4O)c(C)c23)=CC(=O)C1=Nc1c(C)cc(O)cc1O` > 100 µM

State its TGI: `CNN1C(=O)c2c(N)c(C#N)c(-c3ccccc3)c(-c3ccccc3)c2C1=O` > 100 µM

State its TGI: NC1CCC[C@H]1O (stereo partly specified) > 100 µM

State its TGI: `O=C(O)CSc1ccc2[nH]c3ccccc3c(=O)c2c1` > 100 µM

State its TGI: `O=C1/C(=C/c2ccc(O)c(O)c2)COc2ccc(-c3ccccc3)cc21` 14.7 µM

State its TGI: `Cc1cccc(-c2nnc3s/c(=C\c4ccc5c(c4)OCO5)c(=O)n23)c1` > 100 µM

###

Test system: NCI-H23 lung
Experiment: NCI tumour cell line growth inhibition, 48 h
Please provide measured GI50 for the entries that follow.

State its GI50: `CS(=O)(=O)Nc1ccc(Nc2c3ccccc3nc3cc(N)ccc23)cc1` 0.436 µM

State its GI50: `Clc1ccc(N2CCN(CCCN3CCN(c4cccc(Cl)c4)CC3)CC2)cc1` 3.33 µM

State its GI50: `CC(C)OP(=O)(OC(C)C)C([CH2][Sn]([CH3])([CH3])[Cl])P(=O)(OC(C)C)OC(C)C` 18.1 µM

State its GI50: `CCC1=C(C)c2cc3[n-]c(cc4nc(c(C=O)c5[n-]c(cc1n2)c(C)c5CC)C(C)=C4CC)c(C)c3CC.[Ni+2]` > 100 µM

State its GI50: `C/C=C(\C)C(=O)O[C@H]1C=CC(=O)O[C@H]1CC[C@H](O)[C@H](C)O` 15.7 µM

State its GI50: `O=C(COc1cccc(/C=C2/Oc3ccccc3C2=O)c1)Nc1nccs1` 24.8 µM

State its GI50: `Nc1cc(N)c2nc(-c3ccccc3)c(Sc3ccc(Cl)c(Cl)c3)nc2c1` 12.5 µM

State its GI50: `Cn1c2c(c3ccc(-c4ccn[nH]4)cc3c1=O)C(=O)c1ccccc1-2` 2.64 µM

State its GI50: CSCCC(NC(=O)CNC(=O)C(CC(=O)O)NC(=O)C(NC(=O)C(NC(=O)C(NC(=O)CNC(=O)C(CCC(N)=O)NC(=O)C(CCSC)NC(=O)C(CC(=O)O)NC(=O)C(C)NC(=O)C(C)NC(=O)C(NC(=O)C(CO)NC(=O)C(N)CC(C)C)C(C)O)C(C)C)C(C)C)C(C)O)C(=O)NC(C)C(=O)NC(CO)C(=O)NCC(=O)NC(CC(C)C)C(=O)NC(CC(=O)O)C(=O)NC(CCCCN)C(=O)NC(CC(=O)O)C(=O)NC(Cc1ccc(O)cc1)C(=O)NC(CC(C)C)C(=O)NC(CCCCN)C(=O)N1CCCC1C(=O)NC(CC(=O)O)C(=O)NC(CC(=O)O)C(=O)O (centres undefined) > 82.5 µM

###

Test system: DLD-1 colon
Experiment: NCI tumour cell line growth inhibition, 48 h
Please provide measured TGI for the entries that follow.

State its TGI: CCOC(=O)C1N(S(=O)(=O)c2ccc(C)cc2)CCC12c1ccccc1NC2c1ccc(OC)c(OC)c1 (stereo unspecified) > 100 µM

State its TGI: `O=C(Nc1nc2ncn(CCNCCn3cnc4nc(NC(=O)c5ccccc5)[nH]c(=O)c43)c2c(=O)[nH]1)c1ccccc1` > 100 µM

State its TGI: `COc1ccc2nccc(NCCCN3CCN(CCCNc4ccnc5ccc(OC)cc45)CC3)c2c1` 5.12 µM

State its TGI: Cc1cn(C2CC(n3cncn3)C(C(C)O)O2)c(=O)[nH]c1=O (stereo unspecified) > 100 µM

State its TGI: `COc1ccc(/C(Cl)=C(\C=O)c2ccc(Cl)c(Cl)c2)cc1` 25.5 µM

State its TGI: CCCOP1(=O)C=CC(Cl)=C(C)C1 (stereo unspecified) 47.9 µM

State its TGI: `CC#CC(OCC)(OCC)OCC` > 100 µM

State its TGI: `O=C(O)CSc1ccc2[nH]c3ccccc3c(=O)c2c1` > 100 µM

State its TGI: `[Co+2].[O-]c1ccccc1C=NCc1ccccc1.[O-]c1ccccc1C=NCc1ccccc1` > 100 µM

State its TGI: `NC1=NS(=O)(=O)Nc2nc(-c3ccccc3)c(-c3ccccc3)nc21` > 100 µM

State its TGI: `CCCCCC(=O)N[C@H]1CCc2cc(OC)c(OC)c(OC)c2-c2ccc(SC)c(=O)cc21` > 100 µM

State its TGI: `O=c1c2c([nH]c3cc4c(cc13)OCO4)-c1ccccc1C2` 58.7 µM

State its TGI: `C[N+](C)(C)CC(=O)N/N=C(/Cc1nc2ccc(Cl)cc2[nH]c1=O)C1=NS(=O)(=O)c2cc(S(N)(=O)=O)c(Cl)cc2N1` > 100 µM

State its TGI: `COC1=CC(=C(C#N)C(=Nc2ccccc2)SC)C=C(OC)C1=O` 77.3 µM

State its TGI: `CC(=O)CC(=O)Nc1c(C)[c]([Hg][O]C(C)=O)c(C)[c]([Hg][O]C(C)=O)[c]1[Hg][O]C(C)=O` 51.1 µM

State its TGI: `Cc1cccc(-c2nnc3s/c(=C\c4ccc5c(c4)OCO5)c(=O)n23)c1` > 100 µM
